- system_name: indoleamine 2,3-dioxygenase (IDO) (Homo sapiens)
- Construct: replaced with media containing IFNγ (#285-IF/CF, R&D Systems) at a final concentration of 25 ng/mL; endogenous in cells; host or cells: HeLa (ATCC CCL-2), IFN-gamma stimulated
- assay_method_text: HeLa cell-based indoleamine 2,3-dioxygenase (IDO) assay, kynurenine production
- assay_conditions: HeLa cells, IFNγ 25 ng/mL, 48 hour incubation; read-out: IDO Hela IC50
measured_quantity: pIC50
Answers are plain numbers, as −log10 of the molar value.

molecule="CCO[C@H](c1ccc([C@@H](COC)CC(=O)O)cc1NC(=O)Nc1ccc(Cl)cc1F)C(F)(F)F (single isomer, unassigned)" recorded_result=6.72

Please supply pIC50 for each of the following items, keeping them in order.
1. CCO[C@H](c1ccc([C@H](CC)CC(=O)O)cc1Nc1cnc(COC)nc1)C(F)(F)F (single isomer, unassigned)
2. CCO[C@@H](c1ccc([C@H](COC)CC(=O)O)cc1Nc1ccc(Cl)cc1)C(F)(F)F (single isomer, unassigned)
3. CCO[C@@H](c1ccc([C@H](CC)CC(=O)O)cc1NC(=O)Nc1ccc(C)cc1)C(F)(F)F (single isomer, unassigned)

Result:
[6.21, 8.00, 7.70]

---

- system_name: human IDO1 (Homo sapiens)
- Construct: expressed in transfected cells
- Sequence (P14902 whole entry): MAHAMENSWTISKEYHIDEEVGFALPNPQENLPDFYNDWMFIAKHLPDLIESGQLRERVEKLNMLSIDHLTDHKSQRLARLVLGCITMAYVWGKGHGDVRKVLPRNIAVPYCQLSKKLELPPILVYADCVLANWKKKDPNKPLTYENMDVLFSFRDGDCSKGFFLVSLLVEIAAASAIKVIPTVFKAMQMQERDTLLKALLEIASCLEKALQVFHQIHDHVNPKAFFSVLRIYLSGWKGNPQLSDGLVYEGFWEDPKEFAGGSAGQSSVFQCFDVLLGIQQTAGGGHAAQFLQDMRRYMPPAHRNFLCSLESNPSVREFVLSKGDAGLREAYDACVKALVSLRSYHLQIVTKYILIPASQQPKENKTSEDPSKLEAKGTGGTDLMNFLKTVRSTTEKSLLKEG
- assay_method_text: HEK293 cell-based indoleamine 2,3-dioxygenase (IDO) assay
- assay_conditions: human IDO1/HEK293 cells, 20 hours; read-out: IDO1 HEK Human IC50
measured_quantity: pIC50
Numbers only, as −log10 of the molar value.

Sample records with pIC50:
molecule="CCO[C@H](c1ccc([C@H](CC)CC(=O)O)cc1Nc1ccc(Cl)cc1)C(F)(F)F (single isomer, unassigned)" recorded_result=9.00
molecule="CCO[C@@H](c1ccc(F)cc1)c1cc(Nc2ccc3nc(C)sc3c2)cc([C@H](CC)CC(=O)O)c1 (single isomer, unassigned)" recorded_result=7.64
molecule="CCO[C@@H](c1ccc(F)cc1)c1cc(Nc2ccc3nc(C)sc3c2)cc([C@@H](CC)CC(=O)O)c1 (single isomer, unassigned)" recorded_result=5.92
molecule="CCO[C@H](c1ccc(F)cc1)c1cc(Nc2ccc(Cl)cc2)cc([C@@H](CC)CC(=O)O)c1 (single isomer, unassigned)" recorded_result=6.88
molecule="CCOC(C)(C)c1ccc([C@@H](CC)CC(=O)O)cc1NC(=O)Nc1ccc(C)cc1 (single isomer, unassigned)" recorded_result=6.65
molecule="CCOC(C)(C)c1ccc([C@@H](CC)CC(=O)O)cc1Nc1ccc(Cl)cc1 (single isomer, unassigned)" recorded_result=7.02
molecule=Cc1ccc(NC(=O)Nc2cc(OCC(=O)O)ccc2C(CC(C)C)CC(C)C)cc1 recorded_result=6.33
molecule="CCO[C@@H](c1ccc([C@H](CC)CC(=O)O)cc1Nc1ccc(Cl)cc1)C(F)(F)F (stereo in doubt)" recorded_result=9.00
molecule="CCO[C@H](c1ccc(F)cc1)c1cc(Nc2ccc(Cl)cc2)cc([C@H](CC)CC(=O)O)c1 (single isomer, unassigned)" recorded_result=7.70
molecule="CCO[C@@H](c1ccc(F)cc1)c1cc(Nc2ccc(Cl)cc2)cc([C@@H](CC)CC(=O)O)c1 (single isomer, unassigned)" recorded_result=8.15

Please supply pIC50 for each of the following items, keeping them in order.
1. CC[C@@H](CC(=O)O)c1ccc(C(CC(C)C)CC(C)C)c(NC(=O)Nc2ccc(C)cc2)c1
2. CC(C)CC(CC(C)C)c1ccc(-c2ccccc2-c2nn[nH]n2)cc1NC(=O)Nc1ccc(Cl)cc1F
3. CCO[C@H](c1ccc([C@@H](CC)CC(=O)O)cc1Nc1ccc(Cl)cc1)C(F)(F)F (stereo in doubt)

Result:
[8.40, 8.00, 9.00]

---

- system_name: indoleamine 2,3-dioxygenase (IDO) (Homo sapiens, UniProt P14902)
- Construct: replaced with media containing IFNγ (#285-IF/CF, R&D Systems) at a final concentration of 25 ng/mL; endogenous in cells; host or cells: HeLa (ATCC CCL-2), IFN-gamma stimulated
- assay_method_text: HeLa cell-based indoleamine 2,3-dioxygenase (IDO) assay, kynurenine production
- assay_conditions: HeLa cells, IFNγ 25 ng/mL, 48 hour incubation; read-out: IDO Hela IC50 class (A < 50, B < 250, C < 2000)
Assignment: determine reported IC50 for the given compounds.

Sample records with IC50:
compound="CCOc1ncc(Nc2cc([C@H](CC)CC(=O)O)ccc2[C@H](CC)C2CCOCC2)cn1 (single isomer, unassigned)" recorded_result="< 50 nM"
compound="CCO[C@H](c1ccc([C@H](CC)CC(=O)O)cc1Nc1ccc(Cl)cc1)C(F)(F)F (single isomer, unassigned)" recorded_result="< 50 nM"
compound="CCO[C@H](c1ccc([C@@H](CC)CC(=O)O)cc1Nc1cnc(C)nc1)C(F)(F)F (single isomer, unassigned)" recorded_result="< 50 nM"
compound="CC[C@@H](CC(=O)O)c1ccc([C@@H](CC)N2CCOCC2)c(Nc2ccc(OC(F)F)cn2)c1 (relative stereo)" recorded_result="250 to 2000 nM"
compound="CC[C@H](c1ccc([C@@H](COC)CC(=O)O)cc1Nc1ccc(C#N)cc1)N1CCOCC1 (single isomer, unassigned)" recorded_result="250 to 2000 nM"
compound="CC[C@H](CC(=O)O)c1ccc([C@H](OC)C(F)(F)F)c(Nc2ccc(Cl)cc2)c1 (single isomer, unassigned)" recorded_result="< 50 nM"

Please supply IC50 for each of the following items, keeping them in order.
1. CCO[C@@H](c1ccc([C@H](CC)CC(=O)O)cc1NC(=O)Nc1ccc(Cl)cc1F)C(F)(F)F (single isomer, unassigned)
2. CCOc1ncc(Nc2cc([C@@H](CC)CC(=O)O)ccc2[C@H](CC)N2CCOCC2)cn1 (single isomer, unassigned)
3. CC[C@@H](c1ccc([C@@H](COC)CC(=O)O)cc1Nc1ccc(Cl)cc1)N1CCOCC1 (relative stereo)

Result:
1: < 50 nM; 2: < 50 nM; 3: < 50 nM

Please supply IC50 for each of the following items, keeping them in order.
1. CCc1ncc(Nc2cc([C@@H](COC)CC(=O)O)ccc2[C@@H](CC)N2CCOCC2)cn1 (relative stereo)
2. CC[C@@H](c1ccc([C@@H](COC)CC(=O)O)cc1Nc1ccc(C#N)cc1)N1CCOCC1 (single isomer, unassigned)

Result:
250 to 2000 nM
< 50 nM

---

- system_name: indoleamine 2,3-dioxygenase (IDO) (Homo sapiens)
- Construct: replaced with media containing IFNγ (#285-IF/CF, R&D Systems) at a final concentration of 25 ng/mL; endogenous in cells; host or cells: HeLa (ATCC CCL-2), IFN-gamma stimulated
- assay_method_text: HeLa cell-based indoleamine 2,3-dioxygenase (IDO) assay, kynurenine production
- assay_conditions: HeLa cells, IFNγ 25 ng/mL, 48 hour incubation; read-out: IDO Hela IC50
measured_quantity: pIC50
Numbers only, as −log10 of the molar value.

Sample records with pIC50:
molecule="CCO[C@H](c1ccc([C@@H](COC)CC(=O)O)cc1Nc1cnc(C)nc1)C(F)(F)F (single isomer, unassigned)" recorded_result=6.39
molecule="CCO[C@H](c1ccc([C@H](CC)CC(=O)O)cc1Nc1cnc(CC)nc1)C(F)(F)F (relative stereo)" recorded_result=7.40
molecule="CCO[C@H](c1ccc(F)cc1)c1cc(Nc2ccc(Cl)cc2)cc([C@H](CC)CC(=O)O)c1 (single isomer, unassigned)" recorded_result=7.70

Please supply pIC50 for each of the following items, keeping them in order.
1. CCO[C@H](c1ccc([C@H](COC)CC(=O)O)cc1NC(=O)Nc1ccc(Cl)cc1F)C(F)(F)F (single isomer, unassigned)
2. CC[C@@H](CC(=O)O)c1ccc([C@H](OC)C(F)(F)F)c(Nc2cnc(C(F)(F)F)nc2)c1 (single isomer, unassigned)

Result:
[7.40, 8.00]

Bench note, indoleamine 2,3-dioxygenase (IDO) (Homo sapiens): CCc1ncc(Nc2cc([C@@H](COC)CC(=O)O)ccc2[C@H](CC)N2CCOCC2)cn1 (relative stereo) , pIC50 reads 6.05
